- Test system: Hela
- assay protocol: Solid tumor cell growth inhibition, MTT, 72 h
- Format: cell-based, human
- recorded conditions: Homo sapiens, HeLa; 72 h, MTT
assay metric: IC50 (µg/mL)

compound	assay metric	result unit	value observed
C=C1C(=O)[C@]23[C@H](OC(=O)c4ccc(C)cc4)[C@H]1CC[C@H]2[C@@]12CO[C@@]3(O)[C@@H](O)[C@@H]1C(C)(C)CCC2=O [BS-OR-004]	IC50	µg/mL	1.28
C=C1C(=O)[C@]23[C@H](OC(=O)c4ccccc4Br)[C@H]1CC[C@H]2[C@@]12CO[C@@]3(O)[C@@H](O)[C@@H]1C(C)(C)CCC2=O [BS-OR-020]	IC50	µg/mL	1.79
C=C1C(=O)[C@]23[C@H](OC(=O)c4ccc(OC)cc4)[C@H]1CC[C@H]2[C@@]12CO[C@@]3(O)[C@@H](O)[C@@H]1C(C)(C)CCC2=O [BS-OR-005]	IC50	µg/mL	1.16
C=C1C(=O)[C@]23[C@H](OC(=O)c4ccc(OC)cc4)[C@H]1CC[C@H]2[C@@]12CO[C@@]3(O)[C@@H](O)[C@@H]1C(C)(C)CCC2OC(C)=O (stereo partly drawn) [BS-OR-091]	IC50	µg/mL	1.28

I: C=C1C(=O)[C@]23[C@H](O)[C@H]1CC[C@H]2[C@@]12CO[C@]3(O)[C@@H](O)[C@@H]1C(C)(C)CC[C@@H]2O [OR, Oridonin]
II: C=C1C(=O)[C@]23[C@H](OC(=O)/C=C/c4ccccc4)[C@H]1CC[C@H]2[C@@]12CO[C@@]3(O)[C@@H](O)[C@@H]1C(C)(C)CC[C@@H]2OC(C)=O [BS-OR-094]
query: Thinking about recorded IC50 values, which is higher, I or II ? Refer to your chosen entry by its label in the reply.
result: I
(I: 5.22 µg/mL, II: 1.54 µg/mL)

---

- Test system: K562/ADR
- assay protocol: Leukemia cell growth inhibition, MTT, 72 h
- Assay type: cell-based
- recorded conditions: Homo sapiens
assay metric: IC50 (µg/mL)

smiles code	IC50, µg/mL
C=C1C(=O)[C@]23[C@H](OC(=O)c4ccc(OC)c(OC)c4)[C@H]1CC[C@H]2[C@@]12CO[C@@]3(O)[C@@H](O)[C@@H]1C(C)(C)CCC2=O	0.51

a: C=C1C(=O)[C@]23[C@H](OC(=O)c4ccc(Cl)cc4)[C@H]1CC[C@H]2[C@@]12CO[C@@]3(O)[C@@H](O)[C@@H]1C(C)(C)CC[C@@H]2OC(C)=O
b: C=C1C(=O)[C@]23[C@H](OC(=O)c4ccccc4Br)[C@H]1CC[C@H]2[C@@]12CO[C@@]3(O)[C@@H](O)[C@@H]1C(C)(C)CCC2=O
query: Select one. Lower IC50: a or b Field: selected label. Fill in the label of the entry you choose.
result: a

---

- Tested on: K562/ADR
- assay protocol: Leukemia cell growth inhibition, MTT, 72 h
- Format: cell-based
- recorded conditions: Homo sapiens
assay metric: IC50 (µg/mL)

molecule	result unit	value observed
C=C1C(=O)[C@]23[C@H](OC(=O)c4ccc(OC)cc4)[C@H]1CC[C@H]2[C@@]12CO[C@@]3(O)[C@@H](O)[C@@H]1C(C)(C)CCC2OC(C)=O (some centres unmarked) [BS-OR-091]	µg/mL	0.45

1: C=C1C(=O)[C@]23[C@H](OC(=O)C4CCN(S(=O)(=O)CC)CC4)[C@H]1CC[C@H]2[C@@]12CO[C@@]3(O)[C@@H](O)[C@@H]1C(C)(C)CCC2=O [BS-OR-038]
2: C=C1C(=O)[C@]23[C@H](OC(=O)C4CCC(NC(=O)c5ccccn5)CC4)[C@H]1CC[C@H]2[C@@]12CO[C@@]3(O)[C@@H](O)[C@@H]1C(C)(C)CCC2=O (some centres unmarked) [BS-OR-083]
query: Among 1 and 2 , which shows a numerically higher IC50 result? Kindly state the label of the option you pick.
result: 1

A: C=C1C(=O)[C@]23[C@H](O)[C@H]1CC[C@H]2[C@@]12CO[C@]3(O)[C@@H](O)[C@@H]1C(C)(C)CC[C@@H]2O [OR, Oridonin]
B: C=C1C(=O)[C@]23[C@H](OC(=O)/C=C/c4ccccc4)[C@H]1CC[C@H]2[C@@]12CO[C@@]3(O)[C@@H](O)[C@@H]1C(C)(C)CCC2=O [BS-OR-019]
query: // which entry reports the smaller IC50, A or B ? To answer, give the label that identifies your chosen option.
result: B
(B: 0.43 µg/mL, A: 1.32 µg/mL)
